biological target: plasmin (Homo sapiens, UniProt P00747); construct: uPA mediates the proteolytic cleavage of plasminogen to give plasmin; assay: Selectivity: plasmin inhibition, chromogenic substrate S-2366; format: biochemical; details: 580 μM substrate, Tris pH 7.4; read-out: IC50 (μM) Plasmin
Sequence (P00747 581-810 limits assumed, species assumed): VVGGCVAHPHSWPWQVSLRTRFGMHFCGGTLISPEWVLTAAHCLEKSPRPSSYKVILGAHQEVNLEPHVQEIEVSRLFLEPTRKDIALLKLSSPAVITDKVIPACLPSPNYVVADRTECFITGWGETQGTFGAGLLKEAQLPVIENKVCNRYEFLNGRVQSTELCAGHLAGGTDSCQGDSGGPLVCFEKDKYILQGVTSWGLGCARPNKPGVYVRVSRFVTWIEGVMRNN
Sequence (P00747 97-580 partner limits assumed, species assumed): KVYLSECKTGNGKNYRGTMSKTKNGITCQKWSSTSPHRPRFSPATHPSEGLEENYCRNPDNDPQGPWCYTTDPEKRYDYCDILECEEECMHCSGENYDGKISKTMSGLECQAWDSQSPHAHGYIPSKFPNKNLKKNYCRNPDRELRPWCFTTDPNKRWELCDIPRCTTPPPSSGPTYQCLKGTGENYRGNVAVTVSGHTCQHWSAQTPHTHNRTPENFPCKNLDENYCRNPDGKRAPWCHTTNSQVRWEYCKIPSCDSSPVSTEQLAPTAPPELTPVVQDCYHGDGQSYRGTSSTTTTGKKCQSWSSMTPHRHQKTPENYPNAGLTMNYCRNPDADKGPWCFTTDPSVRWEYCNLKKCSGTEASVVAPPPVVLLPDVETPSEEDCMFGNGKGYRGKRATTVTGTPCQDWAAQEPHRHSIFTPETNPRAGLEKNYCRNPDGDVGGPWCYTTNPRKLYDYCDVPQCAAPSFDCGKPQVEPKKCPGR
measure_name: IC50 (µM)
Numbers only, in µM.

Worked cases, answers included:
CCOC(=O)NC(Cc1ccc(NC(=N)N)cc1)P(=O)(Oc1ccccc1)Oc1ccccc1 (stereo not shown) [Compound 35c]	16
N=C(N)Nc1ccc(CC(NC(=O)OCc2ccccc2)P(=O)(Oc2ccccc2)Oc2ccccc2)cc1 (stereo not shown)	3

Please find the next compound below.
Determine reported IC50 for N=C(N)c1ccc(C(NC(=O)OCc2ccccc2)P(=O)(Oc2ccccc2)Oc2ccccc2)cc1 (stereo not shown) ; test system: plasmin (Homo sapiens, UniProt P00747).
3.6

Just for reference, patent US8003627B2 is where these values come from.
